# Test system: ERβ (Homo sapiens)
# Sequence (Q92731 264-498 limits assumed): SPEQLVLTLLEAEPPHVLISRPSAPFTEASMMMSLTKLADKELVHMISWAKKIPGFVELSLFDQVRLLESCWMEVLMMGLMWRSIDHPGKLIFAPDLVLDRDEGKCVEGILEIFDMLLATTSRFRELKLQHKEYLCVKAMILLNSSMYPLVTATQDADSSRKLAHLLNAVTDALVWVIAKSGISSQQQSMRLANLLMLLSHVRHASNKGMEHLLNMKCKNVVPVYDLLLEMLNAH
# Experimental setup: read-out: TR-FRET ERβ IC50; displacement of fluorescent-labeled E2 from the LBD of ERβ
Entries whose IC50 is below 5 nM take MET; entries at or above 5 nM take NOT MET.

INSERT INTO assay_data (compound, test_system, assigned_class) VALUES
  ('CCC(=C(c1ccc(O)cc1)c1ccc(/C=C/C(=O)NCCCNC(=O)CCc2nc3cc(O)ccc3[nH]2)cc1)c1ccccc1 (mixture of isomers) [Compound 40]', 'ERβ (Homo sapiens)', 'MET'),
  ('CCC(=C(c1ccc(O)cc1)c1ccc(/C=C/C(=O)NCCCNC(=O)c2ccc(N3CCN(C(=O)CCCn4c(=S)[nH]c5ccccc5c4=O)CC3)cc2)cc1)c1ccccc1 (mixture of isomers) [Compound 17]', 'ERβ (Homo sapiens)', 'NOT MET'),
  ('CCC(=C(c1ccc(O)cc1)c1ccc(/C=C/C(=O)NCCCCCNC(=O)CCc2nc3cc(O)ccc3[nH]2)cc1)c1ccccc1 (mixture of isomers) [Compound 42]', 'ERβ (Homo sapiens)', 'MET'),
  ('CCC(=C(c1ccc(O)cc1)c1ccc(/C=C/C(=O)NCCCCCNC(=O)CCc2nc3ccc(OC)cc3[nH]2)cc1)c1ccccc1 (mixture of isomers) [Compound 36]', 'ERβ (Homo sapiens)', 'NOT MET'),
  ('CCC(=C(c1ccc(O)cc1)c1ccc(/C=C/C(=O)NCCCCNC(=O)CCc2nc3cc(O)ccc3[nH]2)cc1)c1ccccc1 (mixture of isomers) [Compound 41]', 'ERβ (Homo sapiens)', 'MET'),
  ('CCC(=C(c1ccc(O)cc1)c1ccc(/C=C/C(=O)NCCCNC(=O)CCCn2c(=S)[nH]c3ccccc3c2=O)cc1)c1ccccc1 (mixture of isomers) [Compound 15]', 'ERβ (Homo sapiens)', 'NOT MET'),
  ('CCC(=C(c1ccc(O)cc1)c1ccc(/C=C/C(=O)NCCCNC(=O)CCc2nc3ccc(OC)cc3[nH]2)cc1)c1ccccc1 (mixture of isomers) [Compound 32]', 'ERβ (Homo sapiens)', 'MET');
